A short record of Ki observed with UniProt P00734 follows.
Just the number in nM, nothing appended.

Problem: Form field: reported Ki of N=C(N)N1CCC[C@H](NC(=O)CN2CCC[C@H](NS(=O)(=O)Cc3ccccc3)C2=O)C1O (stereo partly drawn)
Result: 1

Problem: For N=C(N)N1CCC[C@H](NC(=O)CN2CCC[C@@](N)(Cc3ccccc3)C2=O)C1O (stereo partly drawn) then?
Result: 1

Problem: For CCOC(=O)[C@]1(NS(=O)(=O)Cc2ccccc2)CCCN(CC(=O)N[C@H]2CCCN(C(=N)N)C2O)C1=O (stereo partly drawn) then?
Result: 1
